target: hCaV3.2 (Homo sapiens); assay: Inactivated channel state FLIPR assay, concentration-dependent inhibition of hCaV3.2; details: hCaV3.2, inactivated channel state FLIPR, n=4 wells per concentration
Sequence (O95180 whole entry): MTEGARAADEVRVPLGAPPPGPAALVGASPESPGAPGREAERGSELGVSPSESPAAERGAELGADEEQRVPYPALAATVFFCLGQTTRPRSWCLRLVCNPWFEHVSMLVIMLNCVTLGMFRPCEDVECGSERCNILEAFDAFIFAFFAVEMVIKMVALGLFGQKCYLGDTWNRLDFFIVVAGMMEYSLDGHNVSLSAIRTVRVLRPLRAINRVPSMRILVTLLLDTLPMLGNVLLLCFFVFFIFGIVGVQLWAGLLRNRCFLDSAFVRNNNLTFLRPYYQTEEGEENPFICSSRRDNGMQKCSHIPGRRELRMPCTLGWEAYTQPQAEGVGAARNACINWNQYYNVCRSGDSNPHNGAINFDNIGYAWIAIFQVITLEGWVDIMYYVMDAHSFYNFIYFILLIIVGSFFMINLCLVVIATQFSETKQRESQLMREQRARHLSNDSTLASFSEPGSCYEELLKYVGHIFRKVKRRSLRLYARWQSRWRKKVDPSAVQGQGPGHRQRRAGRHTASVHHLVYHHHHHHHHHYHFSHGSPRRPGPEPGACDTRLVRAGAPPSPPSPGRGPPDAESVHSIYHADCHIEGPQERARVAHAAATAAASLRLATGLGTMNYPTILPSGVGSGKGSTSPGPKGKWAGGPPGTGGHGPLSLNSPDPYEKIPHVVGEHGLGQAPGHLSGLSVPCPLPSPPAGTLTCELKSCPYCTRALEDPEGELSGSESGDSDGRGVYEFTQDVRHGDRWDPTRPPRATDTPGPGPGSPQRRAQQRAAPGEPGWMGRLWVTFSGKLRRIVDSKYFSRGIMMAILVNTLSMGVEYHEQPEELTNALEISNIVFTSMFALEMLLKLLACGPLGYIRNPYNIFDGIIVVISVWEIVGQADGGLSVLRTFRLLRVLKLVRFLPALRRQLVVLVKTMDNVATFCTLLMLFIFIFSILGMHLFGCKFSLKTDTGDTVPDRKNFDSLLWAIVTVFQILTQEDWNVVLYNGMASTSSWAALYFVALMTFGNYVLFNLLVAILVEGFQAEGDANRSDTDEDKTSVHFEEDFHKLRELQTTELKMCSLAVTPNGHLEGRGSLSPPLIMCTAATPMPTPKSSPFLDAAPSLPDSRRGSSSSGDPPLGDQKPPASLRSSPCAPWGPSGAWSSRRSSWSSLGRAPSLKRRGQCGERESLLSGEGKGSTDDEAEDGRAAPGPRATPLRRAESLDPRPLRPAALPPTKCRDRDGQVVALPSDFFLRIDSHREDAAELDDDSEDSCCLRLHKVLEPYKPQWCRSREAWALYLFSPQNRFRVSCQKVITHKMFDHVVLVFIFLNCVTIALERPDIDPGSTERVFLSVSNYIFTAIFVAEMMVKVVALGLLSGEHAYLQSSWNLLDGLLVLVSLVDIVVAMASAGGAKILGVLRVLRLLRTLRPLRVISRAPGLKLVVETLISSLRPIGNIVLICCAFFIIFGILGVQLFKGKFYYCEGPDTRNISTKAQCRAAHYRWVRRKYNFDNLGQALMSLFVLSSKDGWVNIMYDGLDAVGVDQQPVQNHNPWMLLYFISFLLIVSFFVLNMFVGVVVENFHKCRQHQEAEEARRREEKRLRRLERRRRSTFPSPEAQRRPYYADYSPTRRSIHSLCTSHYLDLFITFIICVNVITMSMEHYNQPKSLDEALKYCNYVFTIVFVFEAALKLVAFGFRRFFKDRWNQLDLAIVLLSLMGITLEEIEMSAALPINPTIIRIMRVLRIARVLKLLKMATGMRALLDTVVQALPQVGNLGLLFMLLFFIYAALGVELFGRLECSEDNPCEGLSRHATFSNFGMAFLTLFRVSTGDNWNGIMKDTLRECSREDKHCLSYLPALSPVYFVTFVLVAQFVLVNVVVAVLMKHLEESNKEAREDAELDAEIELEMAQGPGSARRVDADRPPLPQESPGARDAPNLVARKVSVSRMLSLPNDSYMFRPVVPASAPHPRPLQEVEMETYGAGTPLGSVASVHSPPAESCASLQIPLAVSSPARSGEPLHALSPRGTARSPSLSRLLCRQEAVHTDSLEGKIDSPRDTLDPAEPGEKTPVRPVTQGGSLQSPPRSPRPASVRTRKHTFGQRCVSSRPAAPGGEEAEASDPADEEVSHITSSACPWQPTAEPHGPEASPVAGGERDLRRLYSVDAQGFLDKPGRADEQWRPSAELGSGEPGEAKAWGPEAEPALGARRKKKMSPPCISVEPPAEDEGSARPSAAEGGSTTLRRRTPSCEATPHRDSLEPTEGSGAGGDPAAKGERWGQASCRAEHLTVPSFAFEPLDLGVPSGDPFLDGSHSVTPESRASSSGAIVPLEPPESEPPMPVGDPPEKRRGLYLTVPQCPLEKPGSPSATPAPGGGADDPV
# IC50 listing for each entry below
Lab note: write values as number then unit, every time.

Problem: Fill in the recorded IC50 for this compound, with hCaV3.2 (Homo sapiens) as test system: CCC1(C)CC(=O)NC1=O (centres unmarked) [Ethosuximide, ethosuximide, reference compound]
Solution: 70 mM

Problem: Fill in the recorded IC50 for this compound, with hCaV3.2 (Homo sapiens) as test system: `CC(C)(C)NC(=O)CN1CCC(CNC(=O)c2cccc(Cl)c2)CC1`
Solution: 0.00012 mM
